// reported DC50 per item
measured-on: Protein cereblon/Hematopoietic prostaglandin D synthase (Homo sapiens, UniProt O60760+Q96SW2)
Sequence (O60760 whole entry): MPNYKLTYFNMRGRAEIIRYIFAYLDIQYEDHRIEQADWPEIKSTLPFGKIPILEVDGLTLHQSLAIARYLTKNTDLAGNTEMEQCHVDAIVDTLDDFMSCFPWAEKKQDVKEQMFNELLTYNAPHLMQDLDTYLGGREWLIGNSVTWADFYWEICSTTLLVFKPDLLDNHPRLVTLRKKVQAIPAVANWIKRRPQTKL
Sequence (Q96SW2 whole entry): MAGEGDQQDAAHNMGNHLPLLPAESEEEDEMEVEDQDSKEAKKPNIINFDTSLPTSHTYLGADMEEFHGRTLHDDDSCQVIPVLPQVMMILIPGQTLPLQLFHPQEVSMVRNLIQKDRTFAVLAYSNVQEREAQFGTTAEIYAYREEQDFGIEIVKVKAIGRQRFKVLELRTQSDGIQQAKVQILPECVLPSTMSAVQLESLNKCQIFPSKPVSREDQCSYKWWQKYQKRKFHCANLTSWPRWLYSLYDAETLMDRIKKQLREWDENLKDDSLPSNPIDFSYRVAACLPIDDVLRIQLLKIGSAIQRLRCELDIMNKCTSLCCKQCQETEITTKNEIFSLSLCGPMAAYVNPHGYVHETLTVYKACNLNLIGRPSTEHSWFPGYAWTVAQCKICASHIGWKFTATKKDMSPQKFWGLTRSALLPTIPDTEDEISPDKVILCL
assay-procedure: PROTAC activity at CRBN/H-PGDS in human KU812 cells assessed as reduction in H-PGDS levels incubated for 24 hrs by Western blotting analysis
Format: cell-based, KU812 cell line

>  <compound>
O=C1CCC(N2C(=O)c3ccc(N4CCN(C(=O)C5CCN(c6ccc(NC(=O)c7cnc(Oc8ccccc8)nc7)cc6)CC5)CC4)cc3C2=O)C(=O)N1 (centres undefined)

>  <DC50>
0.0276 nM

$$$$
>  <compound>
Cn1cccc1C(=O)N1CCN(C(=O)Nc2ccc(N3CCC(C(=O)N4CCN(c5cccc6c5C(=O)N(C5CCC(=O)NC5=O)C6=O)CC4)CC3)cc2)CC1 (centres undefined)

>  <DC50>
0.0714 nM

$$$$
>  <compound>
O=C1CCC(N2C(=O)c3cccc(N4CCN(C(=O)C5CCN(c6ccc(NC(=O)c7cnc(Oc8ccccc8)nc7)cc6)CC5)CC4)c3C2=O)C(=O)N1 (centres undefined)

>  <DC50>
0.0187 nM

$$$$
>  <compound>
Cn1cccc1C(=O)N1CCN(C(=O)Nc2ccc(N3CCC(C(=O)N4CCN(c5ccc6c(c5)C(=O)N(C5CCC(=O)NC5=O)C6=O)CC4)CC3)cc2)CC1 (centres undefined)

>  <DC50>
0.0238 nM

$$$$
